src = PubChem BioAssay (NCI)

- Test system: CAKI-1 renal
- METHOD_DESCRIPTION: NCI-60 one-dose screen, 48 h (100 = growth as untreated, 0 = no growth, -100 = all killed)
- CONDITIONS_USED: 10 µM
The panel holds about 83,000 compounds, 20% with a hit somewhere; the sample as a whole holds those more often.
// reported growth per item

- COMPOUND: "COC(=O)c1cnc2c(c1)Oc1ccccc1-c1ccnn1-2"
  UNIT_ANNOTATION: "%"
  growth: 86.8
- COMPOUND: "O=[N+]([O-])c1ccc(-c2nc(Cl)c3c(n2)CCCC3)o1"
  UNIT_ANNOTATION: "%"
  growth: -15.6
- COMPOUND: "C[N+]1(CC2CO2)CCCCCC1 (centres undefined)"
  UNIT_ANNOTATION: "%"
  growth: 100
- COMPOUND: "O=C(c1ccccc1)C(Sc1ccccc1)c1ccccc1 (centres undefined)"
  UNIT_ANNOTATION: "%"
  growth: 82.5
- COMPOUND: "COc1ccc2nc(-c3ccccc3)cc(C(C)=O)c2c1"
  UNIT_ANNOTATION: "%"
  growth: 87.9
- COMPOUND: "COc1ccc(-c2ccccc2)cc1C(=O)c1ccc(-c2ccccc2)cc1"
  UNIT_ANNOTATION: "%"
  growth: 52.2
- COMPOUND: "Nc1ncncc1-c1ccc(F)cc1"
  UNIT_ANNOTATION: "%"
  growth: 98.5
- COMPOUND: "CCCCCCOc1ccc(/C=C/C(=O)c2ccc(B(O)O)cc2)cc1"
  UNIT_ANNOTATION: "%"
  growth: 61.5
- COMPOUND: "Nc1c(CNCc2nnn(Cc3ccccc3)c2N)nnn1Cc1ccccc1"
  UNIT_ANNOTATION: "%"
  growth: 101
- COMPOUND: "Cc1ccc(-n2nnc3c(sc4ccccc43)c2=O)cc1"
  UNIT_ANNOTATION: "%"
  growth: 48.7
- COMPOUND: "CC(C)=C1CCC(C)C/C1=N\\N=C(N)N (centres undefined)"
  UNIT_ANNOTATION: "%"
  growth: 93.3
- COMPOUND: "CCN(CC)CC(O)CNc1ccnc2cc(Cl)c(Cl)cc12 (centres undefined)"
  UNIT_ANNOTATION: "%"
  growth: 80.7
- COMPOUND: "O=c1oc2cc(OS(=O)(=O)C3CC3)ccc2c2c1CCCCCC2"
  UNIT_ANNOTATION: "%"
  growth: 79.4
- COMPOUND: "C#CCn1c(-c2cccc(OCCCCl)c2)nc2c1c(=O)n(C)c(=O)n2C"
  UNIT_ANNOTATION: "%"
  growth: 69.2
- COMPOUND: "COc1ccc(C(=O)n2nc(CC(=O)NCc3ccccc3)nc2N)cc1"
  UNIT_ANNOTATION: "%"
  growth: 110
- COMPOUND: "NC1CCC(Nc2nc(NCc3ccc(-c4cccs4)nc3)c3ncn(C4CCCC4)c3n2)CC1 (centres undefined)"
  UNIT_ANNOTATION: "%"
  growth: 15.3
- COMPOUND: "O=C(NCCCl)c1cc(Cl)cc(Cl)c1"
  UNIT_ANNOTATION: "%"
  growth: 96.8
- COMPOUND: "CCOC(=O)Cn1nnc(-c2ccc(OCc3ccccc3F)cc2)n1"
  UNIT_ANNOTATION: "%"
  growth: 76.5
- COMPOUND: "Oc1ccccc1-c1nnc(Cn2c(Cc3cccc4ccccc34)nc3ccccc32)o1"
  UNIT_ANNOTATION: "%"
  growth: 94.3
- COMPOUND: "COc1cc(Cn2c(-c3ccccc3)cc3c2-c2oncc2CC3)cc(OC)c1"
  UNIT_ANNOTATION: "%"
  growth: 18
- COMPOUND: "COc1ccc(C2C=C(c3ccc(OC)c(OC)c3)N=C3SC=CN32)c(Br)c1 (centres undefined)"
  UNIT_ANNOTATION: "%"
  growth: 71.5
- COMPOUND: "Cc1cc(C)c(C(=O)OC(C)CNC2CCCCC2)c(C)c1 (centres undefined)"
  UNIT_ANNOTATION: "%"
  growth: 97
- COMPOUND: "OC(CNC1CCCC1)Cn1c2ccccc2c2ccccc21 (centres undefined)"
  UNIT_ANNOTATION: "%"
  growth: 31.8
- COMPOUND: "N#CN1CC[C@H](C(=O)Nc2ncc(-c3ccccc3)s2)C1"
  UNIT_ANNOTATION: "%"
  growth: 9.65
